Data origin: patent US8569267B2

target: human cloned 5-HT2A receptor, expressed in L929 cells (Homo sapiens, UniProt P28223); construct: expressed in transfected cells; host or cells: L929 cells; assay: In vitro binding affinity for 5-HT2A receptor ([125I]R91150 radioligand binding); details: human cloned 5-HT2A receptor in L929 cells, [125I]R91150; read-out: 5-HT2A pIC50 (converted)
Sequence (P28223 whole entry): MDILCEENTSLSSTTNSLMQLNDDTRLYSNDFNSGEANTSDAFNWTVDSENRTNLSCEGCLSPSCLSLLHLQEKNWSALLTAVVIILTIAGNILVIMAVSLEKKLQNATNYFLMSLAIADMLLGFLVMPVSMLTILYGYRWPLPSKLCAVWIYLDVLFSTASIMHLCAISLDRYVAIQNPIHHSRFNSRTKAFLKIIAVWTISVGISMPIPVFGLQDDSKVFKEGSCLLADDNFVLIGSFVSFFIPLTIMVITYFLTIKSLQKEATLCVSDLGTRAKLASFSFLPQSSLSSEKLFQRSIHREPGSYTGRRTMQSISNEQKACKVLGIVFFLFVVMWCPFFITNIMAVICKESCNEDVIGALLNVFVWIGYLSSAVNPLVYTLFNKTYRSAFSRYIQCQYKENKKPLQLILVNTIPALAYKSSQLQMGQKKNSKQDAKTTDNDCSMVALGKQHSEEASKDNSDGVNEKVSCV
Metric: IC50

**Query** Entry O=C(C1CCCC1)N1CCN(CC2CC3c4ccccc4Cc4ccc(F)cc4C3O2)CC1 (centres unmarked) : reported IC50 = ?
**Result** 4.79 nM

**Query** Entry Cc1ccc(OC2CCN(CC3CC4c5ccccc5Cc5ccc(F)cc5C4O3)C2)cc1 (centres unmarked) : reported IC50 = ?
**Result** 18.6 nM

**Query** Entry NCCN1CCN(CC2CC3c4ccccc4Cc4ccc(F)cc4C3O2)CC1 (centres unmarked) : reported IC50 = ?
**Result** 6.46 nM

**Query** Entry Fc1ccc2c(c1)C1OC(CN3CCN(Cc4cccs4)CC3)CC1c1ccccc1C2 (centres unmarked) : reported IC50 = ?
**Result** 11 nM

**Query** Entry O=C(Nc1ccc(F)cc1)OCC1CCN(CC2CC3c4ccccc4Cc4ccc(F)cc4C3O2)C1 (centres unmarked) : reported IC50 = ?
**Result** 2.95 nM

**Query** Entry COC(=O)C1CCN(C[C@H]2C[C@@H]3c4ccccc4Cc4ccc(F)cc4[C@@H]3O2)C1 (single isomer, unassigned) [Compound 11] : reported IC50 = ?
**Result** 2.04 nM

**Query** Entry Fc1ccc2c(c1)C1OC(CN3CCN(C(=S)Nc4ccccc4)CC3)CC1c1ccccc1C2 (centres unmarked) : reported IC50 = ?
**Result** 7.41 nM

**Query** Entry O=C(O)CC1CN(C[C@H]2C[C@@H]3c4ccccc4Cc4ccc(F)cc4[C@@H]3O2)CCO1 (some centres unmarked) : reported IC50 = ?
**Result** < 10 nM
